growth for assorted compounds
# Test system: HL-60(TB) leukemia
# procedure_text: NCI-60 one-dose screen, 48 h (100 = growth as untreated, 0 = no growth, -100 = all killed)
# condition: 10 µM unless noted
The panel holds about 83,000 compounds, 20% with a hit somewhere; the sample as a whole holds those more often. Activity calls are given as the source filed them. Rule for the calls: active = growth percent below 10; inactive = the rest.

>>> df
                                   compound    observed_value
0  Cc1c(C(=O)/C=C/c2ccc(Cl)cc2)nnn1-c1ccc2oc(=O)ccc2c1  92.9% (inactive)
1  Brc1cccc(/C=N/Nc2nc(N/N=C/c3cccc(Br)c3)nc(N3CCOCC3)n2)c1   -10.2% (active)
2  COc1ccc(Cn2cc3c(c2-c2cc(OC)c(OC)c(OC)c2)CCc2c(CN4CCOCC4)noc2-3)cc1     1.3% (active)
3  COc1cccc2c1CN(C(=O)c1ccc(O)c(C(=O)N3Cc4ccc(OCCC[P+](c5ccccc5)(c5ccccc5)c5ccccc5)cc4C3)c1)C2  41.3% (inactive)
4  CCCn1cnc2c(c1=N)C(c1ccc(OC)cc1)c1sc3c(C)cccc3c1O2 (stereo not drawn)   0.388% (active)

Identify the measured growth of OCC(Nc1ncnc2ccc(-c3cnc4cnccn34)cc12)c1ccccc1 (stereo not drawn) for HL-60(TB) leukemia.
78.1% (inactive)

Identify the measured growth of Clc1ccc2oc3c(NCCCN4CCOCC4)c4ccccc4nc3c2c1 for HL-60(TB) leukemia.
20.8% (inactive)

Identify the measured growth of Cn1c(SCC(=O)c2ccc(Br)cc2)nc2ccccc2c1=O for HL-60(TB) leukemia.
92.1% (inactive)

Identify the measured growth of CCOP(=O)(OCC)OC[C@]12CCC(C)(C)C=C1[C@H]1CC[C@@H]3[C@@]4(C)CC[C@H](OP(=O)(OCC)OCC)C(C)(C)[C@@H]4CC[C@@]3(C)[C@]1(C)CC2 for HL-60(TB) leukemia.
-22.1% (active)

Identify the measured growth of NCCN1CCN(c2nc(-c3ccccc3)nc3nc(-c4ccccc4)oc23)CC1 for HL-60(TB) leukemia.
-5.94% (active)

Identify the measured growth of C=C(C)C(=O)O[C@H]1C[C@@]2(C)OC(=CC2=O)/C(C)=C\[C@H]2OC(=O)C(=C)[C@H]12 for HL-60(TB) leukemia.
-20.9% (active)

Identify the measured growth of N#Cc1cn(Cc2ccc(Cl)cc2Cl)c(C(=O)c2ccc(Br)cc2)c1N for HL-60(TB) leukemia.
96.6% (inactive)

Identify the measured growth of CCN1C(=O)N(CC)C2SC(N/N=C/c3cccs3)=NC21 (stereo not drawn) for HL-60(TB) leukemia.
1.27% (active)
